Measured target: human glucagon receptor (human, UniProt P47871 26-477)
Sequence (P47871 26-477): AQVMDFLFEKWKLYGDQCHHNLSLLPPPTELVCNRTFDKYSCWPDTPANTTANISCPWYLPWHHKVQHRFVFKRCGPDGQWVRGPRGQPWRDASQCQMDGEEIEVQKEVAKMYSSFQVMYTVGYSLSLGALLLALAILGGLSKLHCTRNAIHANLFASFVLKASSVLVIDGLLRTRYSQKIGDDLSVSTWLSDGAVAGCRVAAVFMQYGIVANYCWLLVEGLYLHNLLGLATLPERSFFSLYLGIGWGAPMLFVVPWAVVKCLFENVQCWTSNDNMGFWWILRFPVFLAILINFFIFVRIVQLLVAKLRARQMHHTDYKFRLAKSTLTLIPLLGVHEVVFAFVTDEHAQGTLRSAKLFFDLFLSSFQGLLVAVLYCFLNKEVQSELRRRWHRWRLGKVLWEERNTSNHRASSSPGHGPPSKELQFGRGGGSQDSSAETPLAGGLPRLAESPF
Method summary: cell-based or functional assay
Where no end group is shown, it is not given here. [ ]: non-standard residue; d: D form. αMePhe(2-F) = C[C@](N)(Cc1ccccc1F)C(=O)O; αMeBip(OMe) = alpha-methylated Bip(OMe); hhPhe = N[C@@H](CCCc1ccccc1)C(=O)O; αMeD = C[C@](N)(CC(=O)O)C(=O)O; Aib = CC(C)(N)C(=O)O
Assay endpoint: cAMP production (pmol/ml/µg prt) with saturated glucagon peptide, at 1 nM

binder="VH[Aib]EGTFTSD[αMeBip(OMe)][hhPhe] (not fully specified (C-terminus); printed as VH-Aib-EGTFTSD-(αMe-Bip(OMe))-(APPA)) [Seq. ID. No. 13]" value_observed=20

I = VVHSEGT[αMePhe(2-F)]TSD[αMeBip(OMe)][hhPhe]-NH2 [Seq. ID. No. 217]
II = VHAEGT[αMePhe(2-F)]TS[αMeD][αMeBip(OMe)][hhPhe]-NH2 [Seq. ID. No. 70]
Short answer wanted: higher cAMP production (pmol/ml/µg prt) with saturated glucagon peptide, at 1 nM, I or II ? Indicate which entry you chose by stating its label. I
(I: 5 pmol/ml/µg prt, II: 2 pmol/ml/µg prt)
